conditions: Patient ID 162, CYP2D6 functional group PM/PM
endpoint label: plasma concentration (ng/mL)

compound	unit text	recorded value
CC/C(=C(\c1ccc(O)cc1)c1ccc(OCCNC)cc1)c1ccccc1 [(Z)-Endoxifen 3-OH-NDM-Tam]	ng/mL	1.46
CC/C(=C(\c1ccccc1)c1ccc(OCCN(C)C)cc1)c1ccccc1 [Tamoxifen]	ng/mL	71.78
CC/C(=C(/c1ccc(OCCNC)cc1)c1ccc(O[C@@H]2O[C@H](C(=O)O)[C@@H](O)[C@H](O)[C@H]2O)cc1)c1ccccc1 [4-OH-NDM-Tam-Gluc]	ng/mL	0.441
CCC(=C(c1ccccc1)c1ccc(OCCNC)cc1)c1ccc(O)cc1 [4'-OH-NDM-Tam]	ng/mL	4.752
CC/C(=C(\c1ccccc1)c1ccc(OCCN(C)C)cc1)c1ccc(O)cc1 [4'-OH-Tam]	ng/mL	2.62

====

settings: 279 patients, tamoxifen 20 mg daily, plasma

compound	unit text	Steady-state plasma concentration, Min
CCC(=C(c1ccccc1)c1ccc(OCC[N+](C)(C)C2OC(C(=O)[O-])C(O)C(O)C2O)cc1)c1ccccc1 (mixture of isomers) [(E/Z)-Tam-N-gluc, Tamoxifen-N-β-D-glucuronide]	ng/mL	0.03
CC(O)/C(=C(\c1ccccc1)c1ccc(OCCN(C)C)cc1)c1ccccc1 (stereo not drawn) [(E)-α-OH-Tam, (E)-α-hydroxy-tamoxifen]	ng/mL	0.02
CC(O)/C(=C(/c1ccccc1)c1ccc(OCCN(C)C)cc1)c1ccccc1 (stereo not drawn) [(Z)-α-OH-Tam, (Z)-α-hydroxy-tamoxifen]	ng/mL	0.02
CCC(=C(c1ccccc1)c1ccc(OCCNC)cc1)c1ccc(O)cc1 [4′-OH-NDM-Tam, 4’-hydroxy-N-desmethyl-tamoxifen]	ng/mL	0.19
CCC(=C(c1ccccc1)c1ccc(OCCN(C)C)cc1)c1ccc(O)cc1 [4′-OH-Tam, 4’-hydroxy-tamoxifen]	ng/mL	0.37
CC/C(=C(\c1ccccc1)c1ccc(OCCN(C)C)cc1)c1ccccc1	ng/mL	41.4
CCC(=C(c1ccc(OCCNC)cc1)c1ccc(O[C@@H]2O[C@H](C(=O)O)[C@@H](O)[C@H](O)[C@H]2O)cc1)c1ccccc1 (mixture of isomers) [(E/Z)-4-OH-NDM-Tam-gluc]	ng/mL	0.10
CC/C(=C(/c1ccc(OCCN(C)C)cc1)c1ccc(O[C@@H]2O[C@H](C(=O)O)[C@@H](O)[C@H](O)[C@H]2O)cc1)c1ccccc1 [(E)-4-OH-Tam-O-gluc]	ng/mL	0.03

====

conditions: Patient ID 129, CYP2D6 functional group EM/IM
# plasma concentration values compiled below

molecule	plasma concentration (ng/mL)
CC(O)C(=C(c1ccccc1)c1ccc(OCCN(C)C)cc1)c1ccccc1 (racemic) [(E)-a-OH-Tam]	0.174
CC/C(=C(\c1ccccc1)c1ccc(OCCN(C)C)cc1)c1ccccc1 [Tamoxifen]	106.28
CC/C(=C(\c1ccc(O)cc1)c1ccc(OCCNC)cc1)c1ccccc1 [(Z)-Endoxifen 3-OH-NDM-Tam]	6.36
CCC(=C(c1ccccc1)c1ccc(OCCNC)cc1)c1ccc(O)cc1 [4'-OH-NDM-Tam]	3.607
CC/C(=C(\c1ccccc1)c1ccc(OCCN(C)C)cc1)c1ccc(O)cc1 [4'-OH-Tam]	3.10
CC/C(=C(/c1ccc(OCCNC)cc1)c1ccc(O[C@@H]2O[C@H](C(=O)O)[C@@H](O)[C@H](O)[C@H]2O)cc1)c1ccccc1 [4-OH-NDM-Tam-Gluc]	1.099
CC(O)C(=C(c1ccccc1)c1ccc(OCCN(C)C)cc1)c1ccccc1 (racemic) [(Z)-a-OH-Tam]	0

====

details: Patient ID 172, CYP2D6 functional group PM/PM
# plasma concentration values compiled below

compound	plasma concentration / ng/mL
CC/C(=C(\c1ccccc1)c1ccc(OCCN(C)C)cc1)c1ccc(O)cc1	3.83
CC/C(=C(/c1ccc(OCCNC)cc1)c1ccc(O[C@@H]2O[C@H](C(=O)O)[C@@H](O)[C@H](O)[C@H]2O)cc1)c1ccccc1	0.466
CCC(=C(c1ccccc1)c1ccc(OCCNC)cc1)c1ccc(O)cc1	7.076
CC/C(=C(\c1ccccc1)c1ccc(OCCN(C)C)cc1)c1ccccc1	235.52
CC/C(=C(\c1ccc(O)cc1)c1ccc(OCCNC)cc1)c1ccccc1 [(Z)-Endoxifen 3-OH-NDM-Tam]	1.47

====

conditions: Patient ID 136, CYP2D6 functional group EM/UM

molecule	plasma concentration (ng/mL)
CC(O)C(=C(c1ccccc1)c1ccc(OCCN(C)C)cc1)c1ccccc1 (racemic) [(Z)-a-OH-Tam]	0.057
CC/C(=C(\c1ccc(O)cc1)c1ccc(OCCNC)cc1)c1ccccc1 [(Z)-Endoxifen 3-OH-NDM-Tam]	8.14
CC(O)C(=C(c1ccccc1)c1ccc(OCCN(C)C)cc1)c1ccccc1 (racemic) [(E)-a-OH-Tam]	0.504
CC/C(=C(/c1ccc(OCCNC)cc1)c1ccc(O[C@@H]2O[C@H](C(=O)O)[C@@H](O)[C@H](O)[C@H]2O)cc1)c1ccccc1	1.462

====

conditions: Patient ID 148, CYP2D6 functional group EM/UM
# plasma concentration values compiled below

compound	plasma concentration (ng/mL)
CC(O)C(=C(c1ccccc1)c1ccc(OCCN(C)C)cc1)c1ccccc1 (racemic) [(E)-a-OH-Tam]	0.441
CCC(=C(c1ccccc1)c1ccc(OCCNC)cc1)c1ccc(O)cc1	3.162
CC/C(=C(\c1ccccc1)c1ccc(OCCN(C)C)cc1)c1ccc(O)cc1	2.88

====

settings: Patient ID 159, CYP2D6 functional group EM/EM

compound	plasma concentration (ng/mL)
CC/C(=C(\c1ccccc1)c1ccc(OCCN(C)C)cc1)c1ccccc1	187.91
CCC(=C(c1ccccc1)c1ccc(OCCNC)cc1)c1ccc(O)cc1	4.703
CC/C(=C(\c1ccc(O)cc1)c1ccc(OCCNC)cc1)c1ccccc1 [(Z)-Endoxifen 3-OH-NDM-Tam]	8.53
CC/C(=C(\c1ccccc1)c1ccc(OCCN(C)C)cc1)c1ccc(O)cc1	3.20
CC/C(=C(/c1ccc(OCCNC)cc1)c1ccc(O[C@@H]2O[C@H](C(=O)O)[C@@H](O)[C@H](O)[C@H]2O)cc1)c1ccccc1	1.900

====

details: Patient ID 149, CYP2D6 functional group EM/EM
With a cut-off of 2 ng/mL, any plasma concentration strictly below it is called yes; any plasma concentration meeting it or above is called no.

compound	label
CC/C(=C(\c1ccccc1)c1ccc(OCCN(C)C)cc1)c1ccc(O)cc1 [4'-OH-Tam]	yes
CC/C(=C(/c1ccc(OCCNC)cc1)c1ccc(O[C@@H]2O[C@H](C(=O)O)[C@@H](O)[C@H](O)[C@H]2O)cc1)c1ccccc1 [4-OH-NDM-Tam-Gluc]	no
CC/C(=C(\c1ccc(O)cc1)c1ccc(OCCNC)cc1)c1ccccc1 [(Z)-Endoxifen 3-OH-NDM-Tam]	no
CCC(=C(c1ccccc1)c1ccc(OCCNC)cc1)c1ccc(O)cc1 [4'-OH-NDM-Tam]	no
CC(O)C(=C(c1ccccc1)c1ccc(OCCN(C)C)cc1)c1ccccc1 (racemic) [(Z)-a-OH-Tam]	yes
CC(O)C(=C(c1ccccc1)c1ccc(OCCN(C)C)cc1)c1ccccc1 (racemic) [(E)-a-OH-Tam]	yes
CC/C(=C(\c1ccccc1)c1ccc(OCCN(C)C)cc1)c1ccccc1 [Tamoxifen]	no

====

# plasma concentration values compiled below
settings: Patient ID 204, CYP2D6 functional group IM/PM

molecule	unit text	plasma concentration
CC/C(=C(/c1ccc(OCCNC)cc1)c1ccc(O[C@@H]2O[C@H](C(=O)O)[C@@H](O)[C@H](O)[C@H]2O)cc1)c1ccccc1	ng/mL	0.354
CC/C(=C(\c1ccc(O)cc1)c1ccc(OCCNC)cc1)c1ccccc1 [(Z)-Endoxifen 3-OH-NDM-Tam]	ng/mL	1.30
CCC(=C(c1ccccc1)c1ccc(OCCNC)cc1)c1ccc(O)cc1	ng/mL	4.089
CC/C(=C(\c1ccccc1)c1ccc(OCCN(C)C)cc1)c1ccc(O)cc1	ng/mL	2.28

====

conditions: Patient ID 194, CYP2D6 functional group EM/IM
endpoint label: plasma concentration (ng/mL)

compound	unit text	recorded value
CC/C(=C(\c1ccccc1)c1ccc(OCCN(C)C)cc1)c1ccc(O)cc1	ng/mL	2.20
CC/C(=C(\c1ccccc1)c1ccc(OCCN(C)C)cc1)c1ccccc1	ng/mL	48.85
CC/C(=C(/c1ccc(OCCNC)cc1)c1ccc(O[C@@H]2O[C@H](C(=O)O)[C@@H](O)[C@H](O)[C@H]2O)cc1)c1ccccc1	ng/mL	0.433
CC/C(=C(\c1ccc(O)cc1)c1ccc(OCCNC)cc1)c1ccccc1 [(Z)-Endoxifen 3-OH-NDM-Tam]	ng/mL	0.55
CCC(=C(c1ccccc1)c1ccc(OCCNC)cc1)c1ccc(O)cc1	ng/mL	3.273

====

details: Patient ID 135, CYP2D6 functional group EM/EM
With a cut-off of 0.6 ng/mL, any plasma concentration strictly below it is called 1; any plasma concentration meeting it or above is called 0.

compound	label
CC(O)C(=C(c1ccccc1)c1ccc(OCCN(C)C)cc1)c1ccccc1 (racemic) [(Z)-a-OH-Tam]	1
CC/C(=C(\c1ccccc1)c1ccc(OCCN(C)C)cc1)c1ccccc1	0
CC/C(=C(/c1ccc(OCCNC)cc1)c1ccc(O[C@@H]2O[C@H](C(=O)O)[C@@H](O)[C@H](O)[C@H]2O)cc1)c1ccccc1	1
CC(O)C(=C(c1ccccc1)c1ccc(OCCN(C)C)cc1)c1ccccc1 (racemic) [(E)-a-OH-Tam]	1
CC/C(=C(\c1ccc(O)cc1)c1ccc(OCCNC)cc1)c1ccccc1 [(Z)-Endoxifen 3-OH-NDM-Tam]	0
